# Relative Percent per record follows
# target system: serum α1,3-L-fucosyltransferase (Homo sapiens, UniProt P51993)
# Construct: Sera were collected from healthy females and ovarian cancer patients; from tissue; host or cells: blood serum of ovarian cancer patients and healthy females
# Sequence (P51993 35-359 limits assumed): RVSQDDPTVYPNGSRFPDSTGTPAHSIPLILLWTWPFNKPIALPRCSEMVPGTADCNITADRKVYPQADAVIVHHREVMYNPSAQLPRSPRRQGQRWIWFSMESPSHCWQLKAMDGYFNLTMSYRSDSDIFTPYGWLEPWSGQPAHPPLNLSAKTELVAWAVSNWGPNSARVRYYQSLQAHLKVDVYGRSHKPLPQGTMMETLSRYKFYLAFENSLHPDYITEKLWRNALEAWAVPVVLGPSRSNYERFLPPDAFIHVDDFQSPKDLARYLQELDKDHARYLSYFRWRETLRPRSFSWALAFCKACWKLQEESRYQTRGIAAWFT
# assay overview: Assay of α1,3-fucosyltransferase with various synthetic acceptors, ovarian cancer sera as enzyme source
# Type: biochemical
# experimental conditions: 2'-methyl LacNAc = 100
# Experimental: Sera were collected from healthy females and ovarian cancer patients admitted to Roswell Park Cancer Institute in Buffalo, N.Y., USA. Ovarian tumor tissues were obtained during surgical procedures from patients with ovarian cancer. Both sera and tissues were stored frozen at -70° C. until use. […] The activity of serum α1,3-fucosyltransferase was measured with the specific substrate 2'-methyl LacNAc and compared with the ability of several other synthetic substrates to act as an acceptor of fucose. […]
Numbers only; they are read as %.

Reference set (4 entries):
Param readout= Relative Percent; system= serum α1,3-L-fucosyltransferase (Homo sapiens, UniProt P51993); entry= CC(=O)N[C@H]1C(O)O[C@H](CO)[C@@H](O[C@@H]2O[C@H](CO)[C@H](O)[C@H](O)[C@H]2O)[C@@H]1O (stereo partly shown) [LacNAc] ; returns value.
93.4

Can you handle CC(=O)N[C@H]1C(O)O[C@H](CO)[C@@H](O[C@@H]2O[C@H](CO)[C@H](O)[C@H](O)[C@H]2OS(=O)(=O)O)[C@@H]1O (stereo partly shown) [2'-Sulfo LacNAc] next?
22.0

Can you handle CC(=O)N[C@H]1[C@@H](Oc2ccccc2[N+](=O)[O-])O[C@H](CO[C@@H]2O[C@H](CO)[C@@H](O)[C@H](O)[C@H]2NC(C)=O)[C@H](O)[C@@H]1O [G1cNAcβ1,6Ga1NAcα-O--ONp] next?
9.5

Can you handle CO[C@H]1[C@H](O[C@H]2[C@H](O)[C@@H](NC(C)=O)[C@H](OCc3ccccc3)O[C@@H]2CO)O[C@H](CO)[C@H](O)[C@@H]1O [2'-methyl LacNAcβ-O--Bn] next?
307.9

More entries:
Param readout= Relative Percent; system= serum α1,3-L-fucosyltransferase (Homo sapiens, UniProt P51993); entry= CC(=O)N[C@H]1C(O)O[C@H](CO)[C@@H](O[C@@H]2O[C@H](COS(=O)(=O)O)[C@H](O)[C@H](O)[C@H]2O)[C@@H]1O (stereo partly shown) [6'-Sulfo LacNAc] ; returns value.
36.2

Can you handle CC(=O)N[C@H]1[C@H](OCc2ccccc2)O[C@H](CO)[C@@H](O[C@@H]2O[C@H](CO)[C@H](O)[C@H](OS(=O)(=O)O)[C@H]2O)[C@@H]1O [3'-Sulfo LacNAcβ-O--Bn] next?
168.4

Can you handle CC(=O)N[C@H]1C(O)O[C@H](CO)[C@@H](O[C@@H]2O[C@H](CO)[C@H](O)[C@H](O)[C@H]2O[C@@H]2O[C@@H](C)[C@@H](O)[C@@H](O)[C@@H]2O)[C@@H]1O (stereo partly shown) [2'-Fucosyl LacNAc, 2'-Fucosyl N-acetyllactosamine] next?
253.1
